Values from ChEMBL document CHEMBL3868623

Below, each of the compounds is paired with its reported remaining at 10 min value.
experiment: in vitro
condition.context: human, liver microsomes
Output spec: scalar in %, unitless text.

These recorded examples may help you get a feel for the data.
compound: C[C@]1(O)C[C@@H](C#Cc2cncc([C@H]3NC(=O)O[C@@H]3c3cccc(F)c3)c2)C1
units.symbol: %
remaining at 10 min: 95
//
compound: O=C1N[C@H](c2cncc(C#C[C@H]3C[C@H](F)C3)c2)[C@@H](c2cccc(F)c2)O1
units.symbol: %
remaining at 10 min: 81
//
compound: C[C@]1(O)C[C@H](C#Cc2cncc([C@H]3NC(=O)O[C@@H]3c3cccc(F)c3)c2)C1
units.symbol: %
remaining at 10 min: 88

Task item: Which remaining at 10 min reading was recorded for the compound O=C1N[C@H](c2cncc(C#CC3CCOC3)c2)[C@@H](c2cccc(F)c2)O1 (stereo not given in full) ?
Reply: 93

Task item: Which remaining at 10 min reading was recorded for the compound O=C1N[C@H](c2cncc(C#Cc3ccccc3)c2)[C@@H](c2cccc(F)c2)O1 ?
Reply: 76

Task item: Which remaining at 10 min reading was recorded for the compound O=C1N[C@H](c2cncc(C#C[C@H]3C[C@H](O)C3)c2)[C@@H](c2cccc(F)c2)O1 ?
Reply: 100

Task item: Which remaining at 10 min reading was recorded for the compound O=C1N[C@H](c2cncc(C#C[C@H]3C[C@@H](F)C3)c2)[C@@H](c2cccc(F)c2)O1 ?
Reply: 83

* * *

experiment: in vitro
condition.context: mouse, liver microsomes
property.measured: remaining at 10 min (%)
Output spec: scalar in %, unitless text.

smiles.record: O=C1N[C@H](c2cncc(C#Cc3ccccc3)c2)[C@@H](c2cccc(F)c2)O1
property.measured: remaining at 10 min
units.symbol: %
endpoint.result: 71
//
smiles.record: C[C@]1(O)C[C@H](C#Cc2cncc([C@H]3NC(=O)O[C@@H]3c3cccc(F)c3)c2)C1
property.measured: remaining at 10 min
units.symbol: %
endpoint.result: 78
//
smiles.record: O=C1N[C@H](c2cncc(C#C[C@H]3C[C@@H](F)C3)c2)[C@@H](c2cccc(F)c2)O1
property.measured: remaining at 10 min
units.symbol: %
endpoint.result: 57
//
smiles.record: O=C1N[C@H](c2cncc(C#CC3CC(F)(F)C3)c2)[C@@H](c2ccc(F)cc2F)O1
property.measured: remaining at 10 min
units.symbol: %
endpoint.result: 84

Okay, next one:
Task item: Which remaining at 10 min reading was recorded for the compound O=C1N[C@H](c2cncc(C#C[C@H]3C[C@@H](O)C3)c2)[C@@H](c2cccc(F)c2)O1 ?
Reply: 51

* * *

experiment: in vitro
condition.context: mouse, liver microsomes
Doc: threshold 70% (exclusive). Items with remaining at 10 min beneath it return MET; others return NOT MET.

Previously resolved entries follow.
molecule: O=C1N[C@H](c2cncc(C#C[C@H]3C[C@H](F)C3)c2)[C@@H](c2cccc(F)c2)O1
class.name: MET

molecule: O=C1N[C@H](c2cncc(C#C[C@H]3C[C@H](O)C3)c2)[C@@H](c2cccc(F)c2)O1
class.name: NOT MET

molecule: O=C1N[C@H](c2cncc(C#CC3CCOC3)c2)[C@@H](c2cccc(F)c2)O1 (stereo not given in full)
class.name: MET

Task item: I wonder whether C[C@]1(O)C[C@@H](C#Cc2cncc([C@H]3NC(=O)O[C@@H]3c3cccc(F)c3)c2)C1 has remaining at 10 min below 70%. Can you tell?
Reply: NOT MET
